Assign glycan array binding signal (z-score) to each entry below.
target: Gal(a1-4)GlcNAc; test: glycan array binding signal (z-score within array); higher = stronger binding; conditions: glycan notation: IUPAC condensed, linker removed
About 410 targets per protein were measured; listed, in parts, are those with the strongest signals and a random draw of the rest.
Answers are plain numbers.

Study these solved cases before continuing.
- binder: "GSL-I-B4 (Griffonia simplicifolia) (protein) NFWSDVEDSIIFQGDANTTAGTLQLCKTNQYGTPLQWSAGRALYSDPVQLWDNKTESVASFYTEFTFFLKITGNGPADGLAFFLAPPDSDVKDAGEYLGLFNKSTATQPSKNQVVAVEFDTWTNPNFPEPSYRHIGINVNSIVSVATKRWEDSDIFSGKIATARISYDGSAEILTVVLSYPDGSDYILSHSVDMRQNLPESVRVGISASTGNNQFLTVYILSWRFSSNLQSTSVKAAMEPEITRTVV"
  glycan array binding signal (z-score): 13.8
- binder: "Tachylectin-2 (Tachypleus tridentatus), TAL2_TACTR (protein) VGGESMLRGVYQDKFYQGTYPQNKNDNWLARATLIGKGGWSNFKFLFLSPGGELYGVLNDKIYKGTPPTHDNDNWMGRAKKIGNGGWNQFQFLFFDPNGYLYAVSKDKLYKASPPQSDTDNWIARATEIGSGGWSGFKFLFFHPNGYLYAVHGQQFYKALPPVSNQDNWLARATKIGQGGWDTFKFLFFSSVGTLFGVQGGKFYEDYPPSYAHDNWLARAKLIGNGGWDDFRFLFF"
  glycan array binding signal (z-score): 0.001

Okay, now this binder:
Incoming: Entry Cohesin-hMARCO (Homo sapiens) (protein) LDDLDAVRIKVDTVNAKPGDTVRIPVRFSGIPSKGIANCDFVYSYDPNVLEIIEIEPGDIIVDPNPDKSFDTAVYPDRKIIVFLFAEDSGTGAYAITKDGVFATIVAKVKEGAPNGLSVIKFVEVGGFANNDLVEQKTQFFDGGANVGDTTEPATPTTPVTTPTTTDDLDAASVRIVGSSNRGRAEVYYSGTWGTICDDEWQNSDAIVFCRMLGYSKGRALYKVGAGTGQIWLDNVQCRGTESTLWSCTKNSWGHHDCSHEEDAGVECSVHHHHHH has what glycan array binding signal (z-score)?
Outgoing: -0.083
